Recorded IC50 for the following compounds
molecular target: SARS-CoV-2 3CL^pro (Severe acute respiratory syndrome coronavirus 2); assay: biochemical; format: biochemical; conditions: recombinant 3CLpro 40 nM, substrate 40 μM; mean ± SD, n = 3; read-out: SARS-CoV-2 3CL^pro IC50
measure: IC50

# compound, measure, observed
records = [
    ("COc1cc(OC)cc(C(=O)Nc2nc(-c3ccc(OC)cc3C)cs2)c1 [compound 10a]", "IC50", "> 20 µM"),
    ("COc1cc(OC)cc(C(=O)Nc2nc3c(s2)Cc2cc(OCC(C)C)ccc2-3)c1", "IC50", "> 20 µM"),
    ("COc1cc(OC)cc(C(=O)Nc2nc3c(s2)CCc2cc(OC)ccc2-3)c1", "IC50", "> 20 µM"),
    ("COc1ccc2c(c1)Cc1sc(NC(=O)c3cc(OC(C)=O)cc(OC(C)=O)c3)nc1-2", "IC50", "> 20 µM"),
    ("COc1ccc2c(c1)Cc1sc(NC(=O)c3ccc(Cl)cc3)nc1-2", "IC50", "> 20 µM"),
    ("COc1cc(OC)cc(C(=O)Nc2nc3c(s2)Cc2ccc(OC)cc2-3)c1", "IC50", "6.42 µM"),
    ("COc1cccc(C(=O)Nc2nc3c(s2)Cc2cc(OC)ccc2-3)c1", "IC50", "2.86 µM"),
    ("COc1cc(OC)cc(C(=O)Nc2nc3c(s2)Cc2cc(Cl)ccc2-3)c1", "IC50", "> 20 µM"),
    ("COc1ccc2c(c1)Cc1sc(NC(=O)c3cc(OC)c(OC)c(OC)c3)nc1-2", "IC50", "> 20 µM"),
    ("CCCCOc1ccc2c(c1)Cc1sc(NC(=O)c3cc(OC)cc(OC)c3)nc1-2", "IC50", "> 20 µM"),
    ("COc1cc(OC)cc(C(=O)Nc2nc3c(s2)Cc2cc(OC)ccc2-3)c1", "IC50", "1.28 µM"),
    ("COc1cc(OC)cc(C(=O)Nc2nc3c(s2)Cc2cc(C)ccc2-3)c1", "IC50", "> 20 µM"),
    ("COc1ccc2c(c1)Cc1sc(NC(=O)c3cccc(F)c3)nc1-2", "IC50", "> 20 µM"),
    ("COc1cc(OC)cc(C(=O)Nc2nc(-c3ccc(OC)c(C)c3)cs2)c1 [compound 10b]", "IC50", "> 20 µM"),
]

====

target: UniProt:P0DTD1; experiment: biochemical; assay type: biochemical
measure: IC50

# compound, system, observed
rows = [
    ("COc1ccc2c(c1)Cc1sc(NC(=O)c3cccs3)nc1-2 [compound 7j]", "UniProt:P0DTD1", "> 20 µM"),
]

====

biological target: SARS-CoV-2 3CL^pro (Severe acute respiratory syndrome coronavirus 2); test: biochemical; assay type: biochemical; conditions: 20 μM compound; recombinant 3CLpro 40 nM; mean ± SD, n = 3
Quick rule: inhibition at 20 µM of at least 20% means rule met, below that means rule not met.

# compound, label
data = [
    ("COc1cc(OC)cc(C(=O)Nc2nc3c(s2)Cc2cc(Cl)ccc2-3)c1", "rule met"),
    ("COc1cc(OC)cc(C(=O)Nc2nc3c(s2)Cc2cc(OC)ccc2-3)c1", "rule met"),
    ("COc1ccc2c(c1)Cc1sc(NC(=O)c3cc(OC(C)=O)cc(OC(C)=O)c3)nc1-2", "rule met"),
    ("COc1ccc2c(c1)Cc1sc(NC(=O)c3ccc(Cl)cc3)nc1-2", "rule not met"),
    ("CCCCOc1ccc2c(c1)Cc1sc(NC(=O)c3cc(OC)cc(OC)c3)nc1-2", "rule not met"),
    ("COc1cc(OC)cc(C(=O)Nc2nc3c(s2)Cc2cc(OCC(C)C)ccc2-3)c1", "rule not met"),
    ("COc1cc(OC)cc(C(=O)Nc2nc(-c3ccc(OC)cc3C)cs2)c1 [compound 10a]", "rule not met"),
    ("COc1ccc2c(c1)Cc1sc(NC(=O)c3cc(OC)c(OC)c(OC)c3)nc1-2", "rule not met"),
]
